- study.target: human EGFR (huEGFR) over-expressed on mcl-1-/- mouse embryonic fibroblasts (human, UniProt P00533 25-1210)
- experiment.description: cell-based or functional assay
Quick rule for you: huEGFR+ mcl-1-/- MEF EC50 at 6 nM or higher means fulfilled, lower means not fulfilled.

These recorded examples may help you get a feel for the data.
[
  {
    "binder": "AbA-XW (antibody, human IgG1, kappa, V domains shown, synthon XW on reduced interchain cysteines; average DAR 3.7 per ADC) VH: EVQLQESGPGLVKPSQTLSLTCTVSGYSISRDFAWNWIRQPPGKGLEWMGYISYNGNTRYQPSLKSRITISRDTSKNQFFLKLNSVTAADTATYYCVTASRGFPYWGQGTLVTVSS VL: DIQMTQSPSSMSVSVGDRVTITCHSSQDINSNIGWLQQKPGKSFKGLIYHGTNLDDGVPSRFSGSGSGTDYTLTISSLQPEDFATYYCVQYAQFPWTFGGGTKLEIKR",
    "answer.label": "fulfilled"
  },
  {
    "binder": "AbB-SE (antibody, human IgG1, kappa, V domains shown, synthon SE on reduced interchain cysteines; average DAR 2.2 per ADC) VH: EVQLQESGPGLVKPSQTLSLTCTVSGYSISNDFAWNWIRQPPGKGLEWMGYISYKGNTRYQPSLKSRITISRDTSKNQFFLKLNSVTAADTATYYCVTASRGFPWWGQGTLVTVSS VL: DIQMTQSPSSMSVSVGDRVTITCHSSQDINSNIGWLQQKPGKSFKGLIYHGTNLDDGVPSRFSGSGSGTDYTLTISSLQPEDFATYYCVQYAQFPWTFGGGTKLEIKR",
    "answer.label": "fulfilled"
  },
  {
    "binder": "AbA-YY (antibody, human IgG1, kappa, V domains shown, synthon YY on reduced interchain cysteines; average DAR 2.2 per ADC) VH: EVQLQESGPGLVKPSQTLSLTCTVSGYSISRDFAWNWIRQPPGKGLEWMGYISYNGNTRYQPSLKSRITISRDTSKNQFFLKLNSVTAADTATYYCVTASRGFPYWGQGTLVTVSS VL: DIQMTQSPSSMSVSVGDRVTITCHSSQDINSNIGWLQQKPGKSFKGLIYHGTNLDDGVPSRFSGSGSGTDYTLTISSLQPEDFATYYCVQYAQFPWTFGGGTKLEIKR",
    "answer.label": "fulfilled"
  }
]

Form field: huEGFR+ mcl-1-/- MEF EC50 at least 6 nM? Entry: AbK-XW (antibody, human IgG1, kappa, V domains shown, synthon XW on reduced interchain cysteines; average DAR 2.8 per ADC) VH: EVQLQESGPGLVKPSQTLSLTCTVSGYSISRDFAWNWIRQPPGKGLEWMGYISYNGNTRYQPSLKSRITISRDTSKNQFFLKLNSVTAADTATYYCVTASRGFPWWGQGTLVTVSS VL: DIQMTQSPSSMSVSVGDRVTITCHSSQDITYNVGWLQQKPGKSFKGLIYHGSNLDHGVPSRFSGSGSGTDYTLTISSLQPEDFATYYCVQYDDFPWTFGGGTKLEIKR
not fulfilled
